# targetDesc: USP22 zf-UBP domain, tag cleaved (for FP) (human) (UniProt Q9UPT9)
# Sequence (Q9UPT9 whole entry, the tested form may be a part): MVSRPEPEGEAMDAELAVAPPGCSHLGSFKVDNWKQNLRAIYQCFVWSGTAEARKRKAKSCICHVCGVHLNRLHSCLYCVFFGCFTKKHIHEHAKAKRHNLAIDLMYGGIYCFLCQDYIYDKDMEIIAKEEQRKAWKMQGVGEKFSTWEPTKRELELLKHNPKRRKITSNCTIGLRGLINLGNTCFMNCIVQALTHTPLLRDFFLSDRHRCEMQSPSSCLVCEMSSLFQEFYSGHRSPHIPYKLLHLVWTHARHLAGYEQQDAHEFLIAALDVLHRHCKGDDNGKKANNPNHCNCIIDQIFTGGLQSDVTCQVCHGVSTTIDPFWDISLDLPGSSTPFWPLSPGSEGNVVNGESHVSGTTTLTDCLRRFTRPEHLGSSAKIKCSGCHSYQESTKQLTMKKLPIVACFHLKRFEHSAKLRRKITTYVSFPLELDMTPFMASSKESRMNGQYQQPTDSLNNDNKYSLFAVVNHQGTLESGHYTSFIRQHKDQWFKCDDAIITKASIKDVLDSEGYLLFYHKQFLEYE
# methodSummary: fluorescence polarisation; saturation or displacement not stated for this experiment; 50 mM phosphate buffer pH 7.4, room temperature
Ends that are not written are not given here.
I'd appreciate it if you could supply pKd values for the items below.
Give bare numbers, as −log10 of the molar value.

Would you please look over these solved cases?
binder	pKd
VPSPEAFLGKPWSSWIDAAKLH-NH2 (also: N-terminus FITC-labeled or acetylated) [ATXN7L1_(36-57) peptide]	7.00
VPSLDDFAGQSWSSWVERADLP-NH2 (also: N-terminus FITC-labeled or acetylated) [ATXN7L2_(18-39) peptide]	5.52
VPSLDDFAGQSWSSWVE-NH2 (also: N-terminus FITC-labeled or acetylated) [ATXN7L2_(18-34) peptide]	4.72

Now, please, on to the next binder.
Given VPSPEAFLGKPWSSWID-NH2 (also: N-terminus FITC-labeled or acetylated) [ATXN7L1_(36-52) peptide] , state its recorded pKd.
4.96
